System: Staphylococcus aureus
procedure summary: Antibacterial activity against Staphylococcus aureus ATCC 25923 after 16 to 20 hrs by microdilution susceptibility test
Format: functional
Lab note: cut-off is 20 µM. Strictly less in MIC is Met. Exactly 20 µM or more is Not met.

INSERT INTO results (smiles_string, group) VALUES
  ('CCCCCc1ccc(C(=O)Nc2ccc3[nH]c(N)nc3c2)cc1.Cl', 'Met'),
  ('CCCCCCc1ccc(C(=O)Nc2ccc3[nH]c(N)nc3c2)cc1', 'Met'),
  ('Nc1nc2cc(NC(=O)c3ccc(-c4ccccc4)cc3)ccc2[nH]1', 'Not met'),
  ('CCCCCCCc1ccc(C(=O)Nc2ccc3[nH]c(N)nc3c2)cc1', 'Not met'),
  ('CCCCc1ccc(C(=O)Nc2ccc3[nH]c(N)nc3c2)cc1', 'Not met'),
  ('CCCCCCCCCCCC(=O)Nc1ccc2[nH]c(N)nc2c1', 'Not met'),
  ('CN[C@H](CC(C)C)C(=O)N[C@H]1C(=O)N[C@@H](CC(N)=O)C(=O)N[C@H]2C(=O)N[C@H]3C(=O)N[C@H](C(=O)N[C@H](C(=O)O)c4cc(O)cc(O)c4-c4cc3ccc4O)[C@H](O)c3ccc(c(Cl)c3)Oc3cc2cc(c3O[C@@H]2O[C@H](CO)[C@@H](O)[C@H](O)[C@H]2O[C@H]2C[C@](C)(N)[C@H](O)[C@H](C)O2)Oc2ccc(cc2Cl)[C@H]1O', 'Met'),
  ('CCCCCCCCCC(=O)Nc1ccc2[nH]c(N)nc2c1', 'Not met'),
  ('CC(C)(C)c1ccc(C(=O)Nc2ccc3[nH]c(N)nc3c2)cc1', 'Not met');

====

Tested on: Acinetobacter baumannii
procedure summary: Antibacterial activity against Acinetobacter baumannii UH8407 after 16 to 20 hrs by microdilution susceptibility test
Assay type: functional
Reported log10 MIC values for the following compounds.
readout name: log10 MIC (log10 of the value in µM)

INSERT INTO measurements (compound, number) VALUES
  ('NC[C@H]1O[C@H](O[C@H]2[C@H](O)[C@@H](O[C@H]3O[C@H](CO)[C@@H](O)[C@H](N)[C@H]3O)[C@H](N)C[C@@H]2N)[C@H](N)C[C@@H]1O [TOBRAMYCIN]', 2.30),
  ('C[C@@H](O)[C@H]1C(=O)N2C(C(=O)O)=C(SCCNC=N)C[C@H]12 [IMIPENEM ANHYDROUS]', 0.49),
  ('CCCCCc1ccc(C(=O)Nc2ccc3[nH]c(N)nc3c2)cc1.Cl', 1.40),
  ('CCCCCCc1ccc(C(=O)Nc2ccc3[nH]c(N)nc3c2)cc1', 1.40),
  ('CCCCCCCCCC(=O)Nc1ccc2[nH]c(N)nc2c1', 1.40),
  ('CCCCc1ccc(C(=O)Nc2ccc3[nH]c(N)nc3c2)cc1', 1.70),
  ('CCCCCCCCCCCC(=O)Nc1ccc2[nH]c(N)nc2c1', 1.40),
  ('CC(C)(C)c1ccc(C(=O)Nc2ccc3[nH]c(N)nc3c2)cc1', 2.00);

====

procedure summary: Toxicity in defibrinated sheep RBC assessed as hemolysis at 25 uM by UV spectrometry
Format: cell-based, Ovis aries, Erythrocyte
particulars: defibrinated sheep red blood cells, read-out: Activity
readout name: hemolysis at 25 µM

INSERT INTO measurements (smiles_string, result) VALUES
  ('Nc1nc2cc(NC(=O)c3ccccc3)ccc2[nH]1', '< 1%'),
  ('CCCCCc1ccc(C(=O)Nc2ccc3[nH]c(N)nc3c2)cc1.Cl', '< 1%');

====

Reported MIC values for the following compounds.
Tested on: Acinetobacter baumannii
procedure summary: Antibacterial activity against multidrug-resistant Acinetobacter baumannii BAA-1605 after 16 to 20 hrs by microdilution susceptibility test
Format: functional
readout name: MIC (µM)

INSERT INTO results (compound, qualifier_sign, number) VALUES
  ('C[C@@H](O)[C@H]1C(=O)N2C(C(=O)O)=C(SCCNC=N)C[C@H]12 [IMIPENEM ANHYDROUS]', '=', 50),
  ('CN(C)[C@@H]1C(O)=C(C(N)=O)C(=O)[C@@]2(O)C(O)=C3C(=O)c4c(O)cccc4[C@@](C)(O)[C@H]3C[C@@H]12', '>', 400),
  ('CCCCCCC(=O)Nc1ccc2[nH]c(N)nc2c1', '>', 400),
  ('CCCCCCCCCCCC(=O)Nc1ccc2[nH]c(N)nc2c1', '=', 12.5);

====

Tested on: Acinetobacter baumannii
procedure summary: Antibacterial activity against multidrug-resistant Acinetobacter baumannii BAA-1605 after 16 to 20 hrs by microdilution susceptibility test
Assay type: functional
readout name: MIC (µM)

INSERT INTO assay_data (smiles_string, readout_name, unit_tag, qualifier_sign, number) VALUES
  ('CCCCc1ccc(C(=O)Nc2ccc3[nH]c(N)nc3c2)cc1', 'MIC', 'µM', '=', 25),
  ('NC[C@H]1O[C@H](O[C@H]2[C@H](O)[C@@H](O[C@H]3O[C@H](CO)[C@@H](O)[C@H](N)[C@H]3O)[C@H](N)C[C@@H]2N)[C@H](N)C[C@@H]1O', 'MIC', 'µM', '=', 6.25),
  ('[N-]=[N+]=NCCc1ccsc1', 'MIC', 'µM', '>', 400),
  ('CCCCCc1ccc(C(=O)Nc2ccc3[nH]c(N)nc3c2)cc1.Cl', 'MIC', 'µM', '=', 12.5),
  ('CCCCCCCCCCCCCCCCCC(=O)Nc1ccc2[nH]c(N)nc2c1', 'MIC', 'µM', '>', 400),
  ('CCCCCCCCCC(=O)Nc1ccc2[nH]c(N)nc2c1', 'MIC', 'µM', '=', 25),
  ('CC(C)(C)c1ccc(C(=O)Nc2ccc3[nH]c(N)nc3c2)cc1', 'MIC', 'µM', '=', 100),
  ('CC1(C)S[C@@H]2[C@H](NC(=O)[C@H](N)c3ccccc3)C(=O)N2[C@H]1C(=O)O', 'MIC', 'µM', '>', 400),
  ('CCCCCCc1ccc(C(=O)Nc2ccc3[nH]c(N)nc3c2)cc1', 'MIC', 'µM', '=', 12.5);

====

Tested on: Acinetobacter baumannii
procedure summary: Antibacterial activity against Acinetobacter baumannii 3304 after 16 to 20 hrs by microdilution susceptibility test
Format: functional
readout name: MIC

INSERT INTO assay_data (smiles_string, readout_name, result) VALUES
  ('CCCCCCCCCCCCCCCCCC(=O)Nc1ccc2[nH]c(N)nc2c1', 'MIC', '> 400 µM'),
  ('CC1(C)S[C@@H]2[C@H](NC(=O)[C@H](N)c3ccccc3)C(=O)N2[C@H]1C(=O)O', 'MIC', '> 400 µM'),
  ('CCCCCCC(=O)Nc1ccc2[nH]c(N)nc2c1', 'MIC', '> 400 µM'),
  ('NC[C@H]1O[C@H](O[C@H]2[C@H](O)[C@@H](O[C@H]3O[C@H](CO)[C@@H](O)[C@H](N)[C@H]3O)[C@H](N)C[C@@H]2N)[C@H](N)C[C@@H]1O', 'MIC', '> 400 µM'),
  ('Nc1nc2cc(NC(=O)c3ccc(-c4ccccc4)cc3)ccc2[nH]1', 'MIC', '> 400 µM');
